SYSTEM_TESTED: MTH1 (Homo sapiens, UniProt P36639)
ASSAY_NOTES: Hydrolysis of triphosphate derivatives by MTH1 (HPLC time course)
Format: biochemical
CONDITION_LABEL: 50 μM dNTP, 5 nM MTH1, 37 °C, various times

- MOLECULE: "Nc1nc2c(c(Cl)c(Cl)n2[C@H]2C[C@H](O)[C@@H](COP(=O)(O)OP(=O)(O)OP(=O)(O)O)O2)c(=O)[nH]1 [Compound 9]"
  SYSTEM_TESTED: "MTH1 (Homo sapiens, UniProt P36639)"
  Hydrolysis to the monophosphate by MTH1: "not detected"
- MOLECULE: "Nc1nc2c(c(I)c(I)n2[C@H]2C[C@H](O)[C@@H](COP(=O)(O)OP(=O)(O)OP(=O)(O)O)O2)c(=O)[nH]1 [Compound 11]"
  SYSTEM_TESTED: "MTH1 (Homo sapiens, UniProt P36639)"
  Hydrolysis to the monophosphate by MTH1: "not detected"
- MOLECULE: "CC(=O)OC[C@H]1O[C@@H](n2ccc3c(=O)[nH]c(N)nc32)C[C@@H]1OC(C)=O [Compound 13]"
  SYSTEM_TESTED: "MTH1 (Homo sapiens, UniProt P36639)"
  Hydrolysis to the monophosphate by MTH1: "not hydrolyzed"
- MOLECULE: "Nc1nc2c(c(I)c(I)n2[C@H]2C[C@H](O)[C@@H](COP(=O)(O)O)O2)c(=O)[nH]1 [Compound 7]"
  SYSTEM_TESTED: "MTH1 (Homo sapiens, UniProt P36639)"
  Hydrolysis to the monophosphate by MTH1: "not hydrolyzed"
